Source listed as ChEMBL document CHEMBL1128299.

target: Delta-type opioid receptor (Mus musculus) (UniProt P32300); experiment: Antagonistic activity against opioid delta receptor in mouse vas deferens after 30 min incubation. Preparation was washed (5x) with buffer after incubation with antagonist.; format: functional, tissue-based
Sequence (P32300 whole entry): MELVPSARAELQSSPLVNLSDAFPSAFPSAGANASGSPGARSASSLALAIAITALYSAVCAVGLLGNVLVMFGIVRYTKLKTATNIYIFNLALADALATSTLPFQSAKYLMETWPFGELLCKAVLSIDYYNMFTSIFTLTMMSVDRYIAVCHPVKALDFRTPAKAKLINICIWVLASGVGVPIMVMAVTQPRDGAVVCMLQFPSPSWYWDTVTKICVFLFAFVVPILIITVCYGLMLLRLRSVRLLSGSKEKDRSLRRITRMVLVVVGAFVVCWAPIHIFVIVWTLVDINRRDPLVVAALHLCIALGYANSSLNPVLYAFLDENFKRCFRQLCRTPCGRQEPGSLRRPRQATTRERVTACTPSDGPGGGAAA

Compound: O=C(CBr)Nc1ccc(Cn2c3c(c4ccccc42)C[C@@]2(O)C4Cc5ccc(O)c6c5C2(CCN4CC2CC2)[C@H]3O6)cc1 (some centres undefined)
IC50 ratio: 12
--
Compound: CC(=O)Nc1ccc(Cn2c3c(c4ccccc42)C[C@@]2(O)C4Cc5ccc(O)c6c5C2(CCN4CC2CC2)[C@H]3O6)cc1 (some centres undefined)
IC50 ratio: 3.1
--
Compound: Oc1ccc2c3c1O[C@H]1c4c(c5ccccc5n4Cc4ccccc4N=C=S)C[C@@]4(O)C(C2)N(CC2CC2)CCC314 (some centres undefined)
IC50 ratio: 39
--
Compound: O=C(CBr)Nc1ccccc1Cn1c2c(c3ccccc31)C[C@@]1(O)C3Cc4ccc(O)c5c4C1(CCN3CC1CC1)[C@H]2O5 (some centres undefined)
IC50 ratio: 13
--
Compound: O=C(CI)Nc1ccccc1Cn1c2c(c3ccccc31)C[C@@]1(O)C3Cc4ccc(O)c5c4C1(CCN3CC1CC1)[C@H]2O5 (some centres undefined)
IC50 ratio: 25.5
--
Compound: Oc1ccc2c3c1O[C@H]1c4c(c5ccccc5n4Cc4ccc(N=C=S)cc4)C[C@@]4(O)C(C2)N(CC2CC2)CCC314 (some centres undefined)
IC50 ratio: 20
--
Compound: CC(=O)Nc1cccc(Cn2c3c(c4ccccc42)C[C@@]2(O)C4Cc5ccc(O)c6c5C2(CCN4CC2CC2)[C@H]3O6)c1 (some centres undefined)
IC50 ratio: 18
--
Compound: CC(=O)Nc1ccccc1Cn1c2c(c3ccccc31)C[C@@]1(O)C3Cc4ccc(O)c5c4C1(CCN3CC1CC1)[C@H]2O5 (some centres undefined)
IC50 ratio: 10
--
Compound: O=C(CBr)Nc1cccc(Cn2c3c(c4ccccc42)C[C@@]2(O)C4Cc5ccc(O)c6c5C2(CCN4CC2CC2)[C@H]3O6)c1 (some centres undefined)
IC50 ratio: 51

----------
target: Opioid receptors; delta & kappa (Homo sapiens) (UniProt P41145+P41143); assay: Selectivity ratio as ratio of Ki value towards kappa receptor to that of delta-1 receptor.; format: protein assay
Sequence (P41143 whole entry, looked up): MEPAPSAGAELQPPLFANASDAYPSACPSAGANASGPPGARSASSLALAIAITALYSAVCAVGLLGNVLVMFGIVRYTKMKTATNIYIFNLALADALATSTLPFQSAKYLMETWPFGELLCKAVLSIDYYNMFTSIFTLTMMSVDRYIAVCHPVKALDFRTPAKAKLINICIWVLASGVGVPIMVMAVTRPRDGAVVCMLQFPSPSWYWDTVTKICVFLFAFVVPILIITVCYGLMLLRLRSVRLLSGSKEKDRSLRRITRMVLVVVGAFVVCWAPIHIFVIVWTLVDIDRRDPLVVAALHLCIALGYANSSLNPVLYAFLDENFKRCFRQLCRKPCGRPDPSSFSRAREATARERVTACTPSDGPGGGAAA
Sequence (P41145 whole entry, looked up): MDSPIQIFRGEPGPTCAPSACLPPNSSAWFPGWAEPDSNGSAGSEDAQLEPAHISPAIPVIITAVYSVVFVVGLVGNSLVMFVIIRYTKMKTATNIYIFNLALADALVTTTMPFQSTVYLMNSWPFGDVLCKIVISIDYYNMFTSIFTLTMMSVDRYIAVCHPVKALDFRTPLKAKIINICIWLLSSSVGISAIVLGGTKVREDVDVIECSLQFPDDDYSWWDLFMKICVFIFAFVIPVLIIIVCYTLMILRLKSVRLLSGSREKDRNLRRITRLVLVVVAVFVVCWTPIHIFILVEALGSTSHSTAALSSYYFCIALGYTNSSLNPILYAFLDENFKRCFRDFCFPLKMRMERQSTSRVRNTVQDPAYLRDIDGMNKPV

Compound: O=C(CBr)Nc1cccc(Cn2c3c(c4ccccc42)C[C@@]2(O)C4Cc5ccc(O)c6c5C2(CCN4CC2CC2)[C@H]3O6)c1 (some centres undefined)
Selectivity: 463

Compound: Oc1ccc2c3c1O[C@H]1c4c(c5ccccc5n4Cc4ccc(N=C=S)cc4)C[C@@]4(O)C(C2)N(CC2CC2)CCC314 (some centres undefined)
Selectivity: 46

Compound: Oc1ccc2c3c1O[C@H]1c4c(c5ccccc5n4Cc4ccccc4N=C=S)C[C@@]4(O)C(C2)N(CC2CC2)CCC314 (some centres undefined)
Selectivity: 308

Compound: Oc1ccc2c3c1O[C@H]1c4c(c5ccccc5n4Cc4cccc(N=C=S)c4)C[C@@]4(O)C(C2)N(CC2CC2)CCC314 (some centres undefined)
Selectivity: 5

----------
target: Opioid receptors; delta & kappa (Homo sapiens) (UniProt P41145+P41143); assay: Selectivity ratio as the ratio of IC50 ratio of delta receptor to that of kappa receptor.; type: functional

Compound: O=C(CBr)Nc1ccccc1Cn1c2c(c3ccccc31)C[C@@]1(O)C3Cc4ccc(O)c5c4C1(CCN3CC1CC1)[C@H]2O5 (stereo partly drawn)
Selectivity: 33
//
Compound: CC(=O)Nc1ccccc1Cn1c2c(c3ccccc31)C[C@@]1(O)C3Cc4ccc(O)c5c4C1(CCN3CC1CC1)[C@H]2O5 (stereo partly drawn)
Selectivity: 42
//
Compound: O=C(CBr)Nc1ccc(Cn2c3c(c4ccccc42)C[C@@]2(O)C4Cc5ccc(O)c6c5C2(CCN4CC2CC2)[C@H]3O6)cc1 (stereo partly drawn)
Selectivity: 30

----------
target: Delta-type opioid receptor (Mus musculus); experiment: Antagonistic activity against opioid delta receptor in mouse vas deferens after 10 minutes. Preparation was washed (5x) with buffer after incubation with antagonist.; format: functional, tissue-based
Param label: returns Fulfilled when IC50 ratio < 7, returns Not fulfilled otherwise, including exact equality.

Compound: CC(=O)Nc1cccc(Cn2c3c(c4ccccc42)C[C@@]2(O)C4Cc5ccc(O)c6c5C2(CCN4CC2CC2)[C@H]3O6)c1 (some centres not stated)
Test Target: Delta-type opioid receptor (Mus musculus)
Qualitative Label: Not fulfilled

Compound: Oc1ccc2c3c1O[C@H]1c4c(c5ccccc5n4Cc4ccccc4N=C=S)C[C@@]4(O)C(C2)N(CC2CC2)CCC314 (some centres not stated)
Test Target: Delta-type opioid receptor (Mus musculus)
Qualitative Label: Not fulfilled

Compound: Oc1ccc2c3c1O[C@H]1c4c(c5ccccc5n4Cc4ccc(N=C=S)cc4)C[C@@]4(O)C(C2)N(CC2CC2)CCC314 (some centres not stated)
Test Target: Delta-type opioid receptor (Mus musculus)
Qualitative Label: Fulfilled

Compound: O=C(CBr)Nc1cccc(Cn2c3c(c4ccccc42)C[C@@]2(O)C4Cc5ccc(O)c6c5C2(CCN4CC2CC2)[C@H]3O6)c1 (some centres not stated)
Test Target: Delta-type opioid receptor (Mus musculus)
Qualitative Label: Not fulfilled

Compound: CC(=O)Nc1ccc(Cn2c3c(c4ccccc42)C[C@@]2(O)C4Cc5ccc(O)c6c5C2(CCN4CC2CC2)[C@H]3O6)cc1 (some centres not stated)
Test Target: Delta-type opioid receptor (Mus musculus)
Qualitative Label: Fulfilled

Compound: O=C(CBr)Nc1ccc(Cn2c3c(c4ccccc42)C[C@@]2(O)C4Cc5ccc(O)c6c5C2(CCN4CC2CC2)[C@H]3O6)cc1 (some centres not stated)
Test Target: Delta-type opioid receptor (Mus musculus)
Qualitative Label: Fulfilled

Compound: O=C(CI)Nc1ccccc1Cn1c2c(c3ccccc31)C[C@@]1(O)C3Cc4ccc(O)c5c4C1(CCN3CC1CC1)[C@H]2O5 (some centres not stated)
Test Target: Delta-type opioid receptor (Mus musculus)
Qualitative Label: Not fulfilled

----------
Property: Selectivity; scope: individual molecules
target: Opioid receptors; mu & delta (Homo sapiens) (UniProt P41143+P35372); test: Selectivity ratio as the ratio of IC50 ratio of delta receptor to that of mu receptor.; format: functional
Sequence (P35372 whole entry, looked up, one chain of several): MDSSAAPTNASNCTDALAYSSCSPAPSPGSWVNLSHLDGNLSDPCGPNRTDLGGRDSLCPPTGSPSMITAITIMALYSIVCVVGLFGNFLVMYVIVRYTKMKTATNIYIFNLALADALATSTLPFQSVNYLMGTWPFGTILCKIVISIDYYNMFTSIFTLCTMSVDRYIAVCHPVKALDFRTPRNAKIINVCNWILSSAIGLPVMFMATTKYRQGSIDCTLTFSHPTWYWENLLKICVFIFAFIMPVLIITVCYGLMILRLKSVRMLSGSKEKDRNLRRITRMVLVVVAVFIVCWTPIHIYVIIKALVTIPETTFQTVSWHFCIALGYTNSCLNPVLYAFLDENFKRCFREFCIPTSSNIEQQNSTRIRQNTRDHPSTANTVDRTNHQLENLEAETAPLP
Assay Readout: Selectivity

Molecule: Oc1ccc2c3c1O[C@H]1c4c(c5ccccc5n4Cc4ccccc4)C[C@@]4(O)C(C2)N(CC2CC2)CCC314 (stereo partly specified)
Assay Readout: Selectivity
Reported Measurement: 131
//
Molecule: CC(=O)Nc1ccc(Cn2c3c(c4ccccc42)C[C@@]2(O)C4Cc5ccc(O)c6c5C2(CCN4CC2CC2)[C@H]3O6)cc1 (stereo partly specified)
Assay Readout: Selectivity
Reported Measurement: 31
//
Molecule: CC(=O)Nc1ccccc1Cn1c2c(c3ccccc31)C[C@@]1(O)C3Cc4ccc(O)c5c4C1(CCN3CC1CC1)[C@H]2O5 (stereo partly specified)
Assay Readout: Selectivity
Reported Measurement: 29
//
Molecule: O=C(CBr)Nc1ccc(Cn2c3c(c4ccccc42)C[C@@]2(O)C4Cc5ccc(O)c6c5C2(CCN4CC2CC2)[C@H]3O6)cc1 (stereo partly specified)
Assay Readout: Selectivity
Reported Measurement: 30
//
Molecule: O=C(CI)Nc1ccccc1Cn1c2c(c3ccccc31)C[C@@]1(O)C3Cc4ccc(O)c5c4C1(CCN3CC1CC1)[C@H]2O5 (stereo partly specified)
Assay Readout: Selectivity
Reported Measurement: 51
//
Molecule: Oc1ccc2c3c1O[C@H]1c4c(c5ccccc5n4Cc4ccccc4N=C=S)C[C@@]4(O)C(C2)N(CC2CC2)CCC314 (stereo partly specified)
Assay Readout: Selectivity
Reported Measurement: 57

----------
target: Delta-type opioid receptor (Homo sapiens) (UniProt P41143); assay: Selectivity ratio as ratio of ED50 value against delta-2 receptor to that delta-1 receptor after 1.5 administration.; assay type: functional, organism-based
Param label: returns MET when Selectivity < 2, returns NOT MET otherwise, including exact equality.

Compound: Oc1ccc2c3c1O[C@H]1c4c(c5ccccc5n4Cc4ccccc4N=C=S)C[C@@]4(O)C(C2)N(CC2CC2)CCC314 (stereo not given in full)
Test Target: Delta-type opioid receptor (Homo sapiens) (UniProt P41143)
Qualitative Label: MET

Compound: Oc1ccc2c3c1O[C@H]1c4c(c5ccccc5n4Cc4ccccc4)C[C@@]4(O)C(C2)N(CC2CC2)CCC314 (stereo not given in full)
Test Target: Delta-type opioid receptor (Homo sapiens) (UniProt P41143)
Qualitative Label: NOT MET

Compound: Oc1ccc2c3c1O[C@H]1c4c(c5ccccc5n4Cc4ccc(N=C=S)cc4)C[C@@]4(O)C(C2)N(CC2CC2)CCC314 (stereo not given in full)
Test Target: Delta-type opioid receptor (Homo sapiens) (UniProt P41143)
Qualitative Label: NOT MET

Compound: Oc1ccc2c3c1O[C@H]1c4c(c5ccccc5n4Cc4cccc(N=C=S)c4)C[C@@]4(O)C(C2)N(CC2CC2)CCC314 (stereo not given in full)
Test Target: Delta-type opioid receptor (Homo sapiens) (UniProt P41143)
Qualitative Label: MET

Compound: O=C(CBr)Nc1cccc(Cn2c3c(c4ccccc42)C[C@@]2(O)C4Cc5ccc(O)c6c5C2(CCN4CC2CC2)[C@H]3O6)c1 (stereo not given in full)
Test Target: Delta-type opioid receptor (Homo sapiens) (UniProt P41143)
Qualitative Label: NOT MET
